# Test system: MMP13 in SW1353 cells
# assayName: OSM/IL-1β signaling assay (MMP13 levels in SW1353 cells);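 note: secreted MMP13 captured by antibody, activated with APMA and its activity read by fluorescence, inhibition scaled between vehicle-treated triggered wells (0%) and untriggered wells (100%)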
# Type: cell-based
# experimentalSetup: Homo sapiens; SW1353 cells, OSM and IL-1β triggered, MMP13 levels 48 hours after triggering; read-out: MMP13 EC50
I'd be grateful if you could share measured EC50 for these entries.

Some entries whose results are on file:
[[record]]
molecule = "O=C(Nc1nc2cccc(-c3ccc(CN4CCCC(F)C4)cc3)n2n1)C1CC1 (centres unmarked)"
assaysystem = "MMP13 in SW1353 cells"
testresult = "> 1 µM"

[[record]]
molecule = "O=C(Nc1nc2cccc(-c3ccc(C(=O)N4CCC(C(F)(F)F)CC4)cc3)n2n1)C1CC1"
assaysystem = "MMP13 in SW1353 cells"
testresult = "> 1 µM"


# batch: return EC50 for each of the 5 molecules below
1. O=C(NC1CCCCC1)c1ccc(-c2cccc3nc(NC(=O)C4CC4)nn23)cc1
2. O=C(Nc1nc2cccc(-c3ccc(C(=O)N4CCC(F)(F)C4)cc3)n2n1)C1CC1
3. CC(C)(C)C1CCN(C(=O)c2ccc(-c3cccc4nc(NC(=O)C5CC5)nn34)cc2)CC1
4. CC1CCN(C(=O)c2ccc(-c3cccc4nc(NC(=O)C5CC5)nn34)cc2)CC1
5. O=C(Nc1nc2cccc(-c3ccc(CC(=O)N4CCCCC4)cc3)n2n1)C1CC1

1: > 1 µM; 2: 0.501 to 1 µM; 3: > 1 µM; 4: > 1 µM; 5: > 1 µM

For `O=C(Nc1nc2cccc(-c3ccc(NS(=O)(=O)Cc4ccccc4)cc3)n2n1)C1CC1` on MMP13 in SW1353 cells, measured EC50 was 0.001 to 0.5 µM
